Measured values drawn from PubChem BioAssay (NCI) for this set.

Tested on: MDA-MB-435 melanoma
Test: NCI-60 one-dose screen, 48 h
Conditions: 10 µM unless noted
This is part of a sample that, as a whole, favours compounds with a hit. Of some 83,000 tested, about 20% had one in any assay. The source made the active and inactive calls. How the source made its calls: active means growth percent below 10; inactive means the rest.
The categories you may choose from are y (active), n (inactive)

O=c1c2cc(F)ccc2sc2c(NCCO)nc3ccccc3c12    n
C#Cc1cccc(NC(=O)Nc2ccccc2NC(=O)CCl)c1    y

Write down the call the test reported for this molecule. Item: CC(C)n1cnc2c(Nc3cccc(Cl)c3)nc(N[C@H]3CCCC[C@@H]3N)nc21
n

Write down the call the test reported for this molecule. Item: CNCCCNc1nc2ccccc2c2c(=O)c3cc(F)ccc3sc12
y
